molecular target: Muscarinic acetylcholine receptor; experiment: Inhibition of [3H]pirenzepine binding against muscarinic acetylcholine receptor in rat brain.; format: tissue-based
quantity name: log10 of Ki (log10 of the value in µM)

INSERT INTO assay_data (molecule, tested_on, endpoint_value) VALUES
  ('CN1CC2CC1C[C@H](OC(=O)C(c1ccccc1)c1ccccc1)C2 (some centres not stated)', 'Muscarinic acetylcholine receptor', -2.24),
  ('CN1CC2CC1C[C@H](OC(=O)C(C)(c1ccccc1)c1ccccc1)C2 (some centres not stated)', 'Muscarinic acetylcholine receptor', -1.90),
  ('CN1CC2CC1C[C@@H](OC(=O)C(c1ccccc1)c1ccccc1)C2 (some centres not stated)', 'Muscarinic acetylcholine receptor', -2.54),
  ('CC(=O)O[C@H]1CC2CC(C1)N(C)C2 (stereo in doubt; 8)', 'Muscarinic acetylcholine receptor', 0.99),
  ('CC(C(=O)O[C@H]1CC2CC(C1)N(Cc1ccccc1)C2)(c1ccccc1)c1ccccc1 (some centres not stated)', 'Muscarinic acetylcholine receptor', -1.55),
  ('CC(=O)O[C@@H]1CC2CC(C1)N(C)C2 (stereo in doubt; 9)', 'Muscarinic acetylcholine receptor', 1.10),
  ('CN1CC2CC1C[C@@H](OC(=O)C(C)(c1ccccc1)c1ccccc1)C2 (stereo in doubt; 1)', 'Muscarinic acetylcholine receptor', -3.93);

---

target: Muscarinic acetylcholine receptor; test: Inhibition of [3H]QNB binding against muscarinic acetylcholine receptor in guinea pig ileum; format: tissue-based, Cavia porcellus
# Ki per entry
quantity name: Ki (µM)

INSERT INTO measurements (compound, tested_on, quantity_name, endpoint_value) VALUES
  ('CN1CC2CC1C[C@@H](OC(=O)C(C)(c1ccccc1)c1ccccc1)C2 (single isomer, unassigned; (-))', 'Muscarinic acetylcholine receptor', 'Ki', 0.0145),
  ('CN1CC2CC1C[C@@H](OC(=O)C(C)(c1ccccc1)c1ccccc1)C2 (single isomer, unassigned; (+))', 'Muscarinic acetylcholine receptor', 'Ki', '5.4e-05'),
  ('CC(=O)O[C@@H]1C[C@@H]2C[C@H](C1)N([C@H](C)c1ccccc1)C2 (stereo in doubt; 13)', 'Muscarinic acetylcholine receptor', 'Ki', 3.75),
  ('CC(=O)O[C@@H]1CC2CC(C1)N(C)C2 (single isomer, unassigned; (+))', 'Muscarinic acetylcholine receptor', 'Ki', 10.4),
  ('CC(=O)O[C@@H]1C[C@@H]2C[C@H](C1)N([C@H](C)c1ccccc1)C2 (stereo in doubt; 12)', 'Muscarinic acetylcholine receptor', 'Ki', 12.9),
  ('CC(=O)O[C@@H]1CC2CC(C1)N(C)C2 (single isomer, unassigned; (-))', 'Muscarinic acetylcholine receptor', 'Ki', 38.1),
  ('CN1CC2CC1C[C@@H](OC(=O)C(c1ccccc1)c1ccccc1)C2 (some centres not stated)', 'Muscarinic acetylcholine receptor', 'Ki', 0.00821),
  ('CC(=O)O[C@H]1CC2CC(C1)N(C(C)c1ccccc1)C2 (some centres not stated)', 'Muscarinic acetylcholine receptor', 'Ki', 4.57),
  ('CC(=O)O[C@H]1CC2CC(C1)N(C)C2 (single isomer, unassigned; (-))', 'Muscarinic acetylcholine receptor', 'Ki', 4.19),
  ('CC(C(=O)O[C@H]1CC2CC(C1)N(Cc1ccccc1)C2)(c1ccccc1)c1ccccc1 (some centres not stated)', 'Muscarinic acetylcholine receptor', 'Ki', 0.0128),
  ('CN1CC2CC1C[C@H](OC(=O)C(C)(c1ccccc1)c1ccccc1)C2 (some centres not stated)', 'Muscarinic acetylcholine receptor', 'Ki', 0.00964),
  ('CN1CC2CC1C[C@H](OC(=O)C(c1ccccc1)c1ccccc1)C2 (some centres not stated)', 'Muscarinic acetylcholine receptor', 'Ki', 0.0191),
  ('CC(=O)O[C@H]1CC2CC(C1)N(C)C2 (single isomer, unassigned; (+))', 'Muscarinic acetylcholine receptor', 'Ki', 21),
  ('CC(=O)O[C@H]1CC2CC(C1)N([C@H](C)c1ccccc1)C2 (some centres not stated)', 'Muscarinic acetylcholine receptor', 'Ki', 7.7),
  ('CC(=O)O[C@@H]1CC2CC(C1)N(C)C2 (stereo in doubt; 9)', 'Muscarinic acetylcholine receptor', 'Ki', 11.9),
  ('CN1CC2CC1C[C@@H](OC(=O)C(C)(c1ccccc1)c1ccccc1)C2 (stereo in doubt; 1)', 'Muscarinic acetylcholine receptor', 'Ki', 0.000279),
  ('CC(=O)O[C@H]1CC2CC(C1)N(C)C2 (stereo in doubt; 8)', 'Muscarinic acetylcholine receptor', 'Ki', 8.4);
